- experimental_target: KRAS G13D (Homo sapiens (Human), UniProt P01116+P62937, G13D)
- Sequence (P01116 other isoform, or with tags, fused parts or gaps G13D): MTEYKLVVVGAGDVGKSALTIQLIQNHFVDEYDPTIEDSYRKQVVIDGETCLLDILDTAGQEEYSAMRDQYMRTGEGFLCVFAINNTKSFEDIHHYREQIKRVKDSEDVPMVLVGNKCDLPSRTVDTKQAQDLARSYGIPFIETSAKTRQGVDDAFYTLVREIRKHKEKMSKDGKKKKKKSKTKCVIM
- Sequence (P62937 whole entry): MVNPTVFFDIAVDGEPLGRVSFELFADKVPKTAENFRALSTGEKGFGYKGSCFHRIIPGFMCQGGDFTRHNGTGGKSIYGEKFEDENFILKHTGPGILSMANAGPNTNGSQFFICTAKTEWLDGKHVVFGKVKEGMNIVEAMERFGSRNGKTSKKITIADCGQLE
- measurement_notes: Ras-Raf disruption/FRET/MOA assay (BRAF RBD, Cyclophilin A)
- Assay type: biochemical
- condition_label: read-out: KRAS G13D FRET data IC50
pIC50: −log10 of the molar value.
Examples of molecules with documented pIC50 follow.
readout_type: pIC50

[[record]]
chemical_structure = "CCn1c(-c2cccnc2[C@H](C)OC)c2c3cc(ccc31)-c1cccc(c1)C[C@H](NC(=O)[C@H](C(C)C)N(C)C(=O)C1COC1)C(=O)N1CCC[C@H](N1)C(=O)OCC(C)(C)C2"
readout_type = "pIC50"
observed = "5.00 to 6.00"

[[record]]
chemical_structure = "CCn1c(-c2cccnc2[C@H](C)OC)c2c3cc(ccc31)-c1csc(n1)C[C@H](NC(=O)[C@H](C(C)C)N(C)C(=O)N(C)C1(C)COC1)C(=O)N1CCC[C@H](N1)C(=O)OCC(C)(C)C2"
readout_type = "pIC50"
observed = "5.00 to 6.00"

[[record]]
chemical_structure = "CCn1c(-c2cnccc2COC)c2c3cc(ccc31)-c1cc(O)cc(c1)C[C@H](NC(=O)[C@H](C(C)C)N(C)C(=O)[C@H]1CCN(C3COC3)C1)C(=O)N1CCC[C@H](N1)C(=O)OCC(C)(C)C2"
readout_type = "pIC50"
observed = "6.00 to 7.00"

[[record]]
chemical_structure = "CCn1c(-c2cccnc2[C@H](C)OC)c2c3cc(ccc31)-c1cc(O)cc(c1)C[C@H](NC(=O)[C@H](C(C)C)N(C)C(=O)O[C@H]1CCN(C)C1)C(=O)N1CCC[C@H](N1)C(=O)OCC(C)(C)C2"
readout_type = "pIC50"
observed = "7.00 to 8.00"

[[record]]
chemical_structure = "CCn1c(-c2cccnc2[C@H](C)OC)c2c3cc(ccc31)-c1cc(O)cc(c1)C[C@H](NC(=O)[C@H](C(C)C)N(C)C(=O)[C@H]1CCN(C(=O)[C@@H]3CCCN3)C1)C(=O)N1CCC[C@H](N1)C(=O)OCC(C)(C)C2"
readout_type = "pIC50"
observed = "7.00 to 8.00"


----------
Examples of compounds with documented pIC50 follow.
- experimental_target: KRAS G12C (Homo sapiens (Human), UniProt P01116+P62937, G12C)
- Sequence (P01116-2 other isoform, or with tags, fused parts or gaps G12C): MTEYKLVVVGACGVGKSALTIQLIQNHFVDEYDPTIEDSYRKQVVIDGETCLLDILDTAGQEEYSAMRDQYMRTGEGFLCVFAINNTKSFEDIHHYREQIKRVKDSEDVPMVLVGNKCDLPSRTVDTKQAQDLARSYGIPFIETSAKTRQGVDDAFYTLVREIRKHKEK
- Sequence (P62937 whole entry): as the sequence (P62937 whole entry) above
- measurement_notes: Ras-Raf disruption/FRET/MOA assay (BRAF RBD, Cyclophilin A)
- Type: biochemical
- condition_label: read-out: KRAS G12C FRET IC50
pIC50: −log10 of the molar value.
readout_type: pIC50

[[record]]
chemical_structure = "CCn1c(-c2cccnc2[C@H](C)OC)c2c3cc(ccc31)-c1csc(n1)C[C@H](NC(=O)[C@H](C(C)C)N(C)C(=O)N1CC[C@@]13CCCN(C)C3)C(=O)N1CCC[C@H](N1)C(=O)OCC(C)(C)C2"
experimental_target = "KRAS G12C (Homo sapiens (Human), UniProt P01116+P62937, G12C)"
observed = "6.00 to 7.00"

[[record]]
chemical_structure = "CCn1c(-c2cccnc2[C@H](C)OC)c2c3cc(ccc31)-c1cc(O)cc(c1)C[C@H](NC(=O)[C@H](C(C)C)N(C)C(=O)[C@H]1CN[C@@H]3CCO[C@H]13)C(=O)N1CCC[C@H](N1)C(=O)OCC(C)(C)C2"
experimental_target = "KRAS G12C (Homo sapiens (Human), UniProt P01116+P62937, G12C)"
observed = "7.00 to 8.00"

[[record]]
chemical_structure = "CCn1c(-c2cccnc2[C@H](C)OC)c2c3cc(ccc31)-c1cc(O)cc(c1)C[C@H](NC(=O)[C@H](C(C)C)N(C)C(=O)[C@H]1CCCC[C@H]1N)C(=O)N1CCC[C@H](N1)C(=O)OCC(C)(C)C2"
experimental_target = "KRAS G12C (Homo sapiens (Human), UniProt P01116+P62937, G12C)"
observed = "7.00 to 8.00"

[[record]]
chemical_structure = "CCn1c(-c2cccnc2[C@H](C)OC)c2c3cc(ccc31)-c1csc(n1)C[C@H](NC(=O)[C@H](C(C)C)N(C)C(=O)N1CC(N3CCC3)C1)C(=O)N1CCC[C@H](N1)C(=O)OCC(C)(C)C2"
experimental_target = "KRAS G12C (Homo sapiens (Human), UniProt P01116+P62937, G12C)"
observed = "6.00 to 7.00"

[[record]]
chemical_structure = "CCn1c(-c2cccnc2[C@H](C)OC)c2c3cc(ccc31)-c1csc(n1)C[C@H](NC(=O)[C@H](C(C)C)N(C)C(=O)N1C[C@H]3CN(C)CC[C@H]31)C(=O)N1CCC[C@H](N1)C(=O)OCC(C)(C)C2"
experimental_target = "KRAS G12C (Homo sapiens (Human), UniProt P01116+P62937, G12C)"
observed = "6.00 to 7.00"

[[record]]
chemical_structure = "CCn1c(-c2cccnc2[C@H](C)OC)c2c3cc(ccc31)-c1cccc(c1)C[C@H](NC(=O)[C@H](C(C)C)N(C)C(=O)C1COC1)C(=O)N1CCC[C@H](N1)C(=O)OCC(C)(C)C2"
experimental_target = "KRAS G12C (Homo sapiens (Human), UniProt P01116+P62937, G12C)"
observed = "5.00 to 6.00"

[[record]]
chemical_structure = "CCn1c(-c2cccnc2[C@H](C)OC)c2c3cc(ccc31)-c1csc(n1)C[C@H](NC(=O)[C@H](C(C)C)N(C)C(=O)N1CC(O)(CN(C)C)C1)C(=O)N1CCC[C@H](N1)C(=O)OCC(C)(C)C2"
experimental_target = "KRAS G12C (Homo sapiens (Human), UniProt P01116+P62937, G12C)"
observed = "6.00 to 7.00"

[[record]]
chemical_structure = "CCn1c(-c2cccnc2[C@H](C)OC)c2c3cc(ccc31)-c1cc(O)cc(c1)C[C@H](NC(=O)[C@H](C(C)C)N1CNCC1=O)C(=O)N1CCC[C@H](N1)C(=O)OCC(C)(C)C2"
experimental_target = "KRAS G12C (Homo sapiens (Human), UniProt P01116+P62937, G12C)"
observed = "6.00 to 7.00"

[[record]]
chemical_structure = "CCn1c(-c2cccnc2[C@H](C)OC)c2c3cc(ccc31)-c1cc(O)cc(c1)C[C@H](NC(=O)[C@H](C(C)C)N(C)C(=O)C1CNCCNC1)C(=O)N1CCC[C@H](N1)C(=O)OCC(C)(C)C2"
experimental_target = "KRAS G12C (Homo sapiens (Human), UniProt P01116+P62937, G12C)"
observed = "7.00 to 8.00"


----------
- Test system: NCI-H358 cells (K-Ras G12C)
- measurement_notes: CellTiter-Glo cell viability, NCI-H358
- Format: cell-based, human
- condition_label: K-Ras G12C, 5-day treatment; read-out: H358 Cell Viability IC50
pIC50: −log10 of the molar value.
readout_type: pIC50

[[record]]
molecule = "CCn1c(-c2cccnc2[C@H](C)OC)c2c3cc(ccc31)-c1csc(n1)C[C@H](NC(=O)[C@H]1[C@H](C)[C@@H]1C)C(=O)N1CCC[C@H](N1)C(=O)OCC(C)(C)C2"
observed = "5.00 to 6.00"

[[record]]
molecule = "CCn1c(-c2cccnc2[C@H](C)OC)c2c3cc(ccc31)-c1cc(O)cc(c1)C[C@H](NC(=O)[C@H](C(C)C)N(C)C(=O)[C@H]1C[C@@H]1O)C(=O)N1CCC[C@H](N1)C(=O)OCC(C)(C)C2 (single isomer, unassigned)"
observed = "6.00 to 7.00"

[[record]]
molecule = "CCOC1c2nc(cs2)-c2ccc3c(c2)c(c(-c2cc(C4CC5COCC(C4)N5C4CC4)cnc2C(C)OC)n3CC)CC(C)(C)COC(=O)C2CCCN(N2)C(=O)C1NC(=O)C1C(C)C1C (centres unmarked)"
observed = "> 8.00"

[[record]]
molecule = "CCn1c(-c2cccnc2[C@H](C)OC)c2c3cc(ccc31)-c1csc(n1)C[C@H](NC(=O)[C@H](C(C)C)N(C)C(=O)N1CC(OC)C1)C(=O)N1CCC[C@H](N1)C(=O)OCC(C)(C)C2"
observed = "6.00 to 7.00"

[[record]]
molecule = "CCn1c(-c2cccnc2[C@H](C)OC)c2c3cc(ccc31)-c1cc(O)cc(c1)C[C@H](NC(=O)[C@H](C(C)C)N(C)C(=O)C13CCC(CO1)C3)C(=O)N1CCC[C@H](N1)C(=O)OCC(C)(C)C2"
observed = "6.00 to 7.00"


----------
- experimental_target: NRAS Q61R binding to BRAF RBD (Homo sapiens (Human), UniProt P01111+P62937, Q61R)
- Sequence (P01111 whole entry Q61R, one chain of several): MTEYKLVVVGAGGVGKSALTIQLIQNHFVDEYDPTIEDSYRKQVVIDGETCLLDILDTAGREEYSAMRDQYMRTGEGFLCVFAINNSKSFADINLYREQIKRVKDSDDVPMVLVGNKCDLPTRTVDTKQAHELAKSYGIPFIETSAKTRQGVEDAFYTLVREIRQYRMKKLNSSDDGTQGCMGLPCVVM
- measurement_notes: Ras-Raf disruption/FRET/MOA assay, NRAS Q61R
Examples of compounds with documented IC50 follow.
readout_type: IC50

[[record]]
compound = "C=CC(=O)N(C)CC1CCN(C(=O)N(C)[C@H](C(=O)N[C@H]2Cc3nc(cs3)-c3ccc4c(c3)c(c(-c3cccnc3[C@H](C)OC)n4CC)CC(C)(C)COC(=O)[C@@H]3CCCN(N3)C2=O)C(C)C)CC1 (atropisomer, axis not shown) [Compound A629]"
readout_type = "IC50"
observed = "10 to 100 nM"

[[record]]
compound = "C=CC(=O)C1CC[C@H](C(=O)N(C)[C@H](C(=O)N[C@H]2Cc3cccc(c3)-c3ccc4c(c3)c(c(-c3cccnc3[C@H](C)OC)n4CC)CC(C)(C)COC(=O)[C@@H]3CCCN(N3)C2=O)C(C)(C)F)C1 (stereo partly drawn) [Compound A693]"
readout_type = "IC50"
observed = "1000 to 10000 nM"

[[record]]
compound = "C=CC(=O)N(C)CCN1CCN(C(=O)N(C)[C@H](C(=O)N[C@H]2C[n+]3cccc(c3)-c3ccc4c(c3)c(c(-c3cccnc3[C@H](C)OC)n4CC)CC(C)(C)COC(=O)[C@@H]3CCCN(N3)C2=O)C(C)C)CC1 [Compound A539]"
readout_type = "IC50"
observed = "100 to 1000 nM"

